Entries and their residual activity values follow.
Biological target: Tyrosine-protein kinase receptor UFO (Homo sapiens)
Conditions: at 10 µM
# value in %; strip the unit string

In the examples that follow, each entry is paired with its recorded residual activity.
smiles string | residual activity / %
COc1cc2ncnc(N3CCN(C(=O)Nc4ccc(Oc5ccccc5)cc4)CC3)c2cc1OC | 60
COc1ccc(S(=O)(=O)N(CCO)c2ccccc2CN(C)C/C=C/c2ccc(Cl)cc2)cc1 | 82

// switching to the query molecule
For reference, reported residual activity for CCC(=O)Nc1ccc2ncnc(Nc3cccc(Br)c3)c2c1 stands at 80

====

Each record here notes measured residual activity.
Biological target: Rho-associated protein kinase 1 (Homo sapiens) (UniProt Q13464)
Sequence (Q13464 2-1354 limits assumed): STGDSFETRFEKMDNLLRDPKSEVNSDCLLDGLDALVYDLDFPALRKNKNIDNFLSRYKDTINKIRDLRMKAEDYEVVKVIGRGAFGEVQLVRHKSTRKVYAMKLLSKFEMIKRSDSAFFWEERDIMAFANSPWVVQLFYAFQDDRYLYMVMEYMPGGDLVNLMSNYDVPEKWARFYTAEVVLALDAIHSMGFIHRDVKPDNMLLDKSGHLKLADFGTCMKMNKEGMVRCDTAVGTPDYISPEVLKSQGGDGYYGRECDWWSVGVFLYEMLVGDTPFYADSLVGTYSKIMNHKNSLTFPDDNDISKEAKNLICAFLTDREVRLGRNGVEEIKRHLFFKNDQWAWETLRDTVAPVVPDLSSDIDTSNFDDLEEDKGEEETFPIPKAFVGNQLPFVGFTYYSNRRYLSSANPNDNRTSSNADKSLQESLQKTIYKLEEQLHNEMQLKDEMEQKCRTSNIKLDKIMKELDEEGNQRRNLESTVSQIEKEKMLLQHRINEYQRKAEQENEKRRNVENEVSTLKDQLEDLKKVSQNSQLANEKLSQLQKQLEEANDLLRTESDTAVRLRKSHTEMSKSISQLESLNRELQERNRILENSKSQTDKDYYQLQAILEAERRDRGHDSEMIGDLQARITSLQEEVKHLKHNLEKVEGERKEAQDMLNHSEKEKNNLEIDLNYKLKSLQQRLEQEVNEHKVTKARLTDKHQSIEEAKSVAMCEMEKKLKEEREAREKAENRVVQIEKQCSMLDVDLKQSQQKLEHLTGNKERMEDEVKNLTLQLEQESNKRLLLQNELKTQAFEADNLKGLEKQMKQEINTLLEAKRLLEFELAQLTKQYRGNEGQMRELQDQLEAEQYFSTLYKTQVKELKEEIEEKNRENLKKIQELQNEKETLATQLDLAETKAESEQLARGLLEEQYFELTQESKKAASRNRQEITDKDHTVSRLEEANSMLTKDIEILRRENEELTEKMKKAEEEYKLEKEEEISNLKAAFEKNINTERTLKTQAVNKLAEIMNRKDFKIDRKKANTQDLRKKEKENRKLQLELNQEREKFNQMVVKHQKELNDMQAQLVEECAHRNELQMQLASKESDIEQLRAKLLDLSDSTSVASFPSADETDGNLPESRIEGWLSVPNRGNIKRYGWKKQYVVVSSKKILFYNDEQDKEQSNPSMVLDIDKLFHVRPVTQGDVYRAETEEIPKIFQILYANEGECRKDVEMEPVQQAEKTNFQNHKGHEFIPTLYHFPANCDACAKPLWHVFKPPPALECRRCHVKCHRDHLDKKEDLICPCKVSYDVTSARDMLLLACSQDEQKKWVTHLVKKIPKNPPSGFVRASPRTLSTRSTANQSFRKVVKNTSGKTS
Conditions: at 1 µM
// note: answer is a bare numeric in %

Example entries begin here.
smiles string | residual activity / %
COc1cccc(-c2cc(=O)c3ccccc3o2)c1N | 117
O=C1NC(=O)c2cc(Nc3ccc(F)cc3)c(Nc3ccc(F)cc3)cc21 | 108
Cc1cc(Nc2nc(-c3ccccc3)nc3ccccc23)n[nH]1 | 120
Nc1n[nH]c2nnc(-c3c(-c4ccccc4)nn4ccccc34)cc12 | 106
CO[C@@H]1[C@H](N(C)C(=O)c2ccccc2)C[C@H]2O[C@]1(C)n1c3ccccc3c3c4c(c5c6ccccc6n2c5c31)C(=O)NC4 | 110

Tested on Rho-associated protein kinase 1 (Homo sapiens) (UniProt Q13464): O=c1cc(-c2cccc3c2Sc2ccccc2S3)oc(N2CCOCC2)c1 . Observed residual activity: 102

Fill in: Rho-associated protein kinase 1 (Homo sapiens) (UniProt Q13464) residual activity for O=C1NC(=O)c2c1c1c3ccccc3[nH]c1c1[nH]c3cc(Br)ccc3c21 = 112

Considering Cc1ccc(S(=O)(=O)/C=C/C#N)cc1 , its residual activity with Rho-associated protein kinase 1 (Homo sapiens) (UniProt Q13464) was recorded as 119

Entry O=C1Nc2cc(Br)ccc2/C1=C1/Nc2ccccc2/C1=N\O under Rho-associated protein kinase 1 (Homo sapiens) (UniProt Q13464) had residual activity of 113

# lookup: CC(C)n1cnc2/c(=N/c3cccc(Cl)c3)nc(NCCO)[nH]c21 on Rho-associated protein kinase 1 (Homo sapiens) (UniProt Q13464), residual activity = 113
